Measured values drawn from patent US11230543B2 for this set.

# Tested on: Pseudomonas aeruginosa expressing AmpC (CL5701)
# Test: Antibiotic activity: growth inhibitory concentration (OD600), Pseudomonas aeruginosa CL5701
# Assay type: cell-based
# Measurement Conditions: lowest concentration inhibiting 95% of bacterial growth; in the presence of β lactamase inhibitor Relebactam 4 μg/mL; 35±2° C. for 22 hours; tested range 100 μM to 0.098 μM
# Method: Antibiotic Activity: Determination of Growth Inhibitory Concentration The concentrations of compounds required to inhibit the growth of various strains of bacteria were determined in an assay that assessed bacterial growth by measuring optical density at 600 nm (OD600). […] At the end of the incubation, absorbance at 600 nm was determined using a spectrophotometer. […]
Outcome Measure: PA_CL5701 MITC95 (µM)
Your answer should be a plain number; it is taken to be in µM.

Below are worked cases with known answers.
COC(=O)[C@H](COc1ccc(-c2cn(CCCN)[n+](C)c2)cc1)O/N=C(\C(=O)N[C@@H]1C(=O)N(OS(=O)(=O)[O-])C1(C)C)c1csc(N)n1: 25
C[n+]1c(N)c(-c2ccc(OC[C@H](O/N=C(\C(=O)N[C@@H]3C(=O)N(OS(=O)(=O)[O-])C3(C)C)c3csc(N)n3)C(=O)O)cc2)cn1CCCN: 3.13
C[n+]1cc(-c2ccc(OC[C@H](O/N=C(\C(=O)N[C@@H]3C(=O)N(OS(=O)(=O)[O-])C3(C)C)c3csc(N)n3)C(=O)O)cc2)ccc1NCC1(O)CNC1: 3.125
COP(=O)(O)[C@H](COc1ccc(-c2cn(CCCN)[n+](C)c2)cc1)O/N=C(\C(=O)N[C@@H]1C(=O)N(OS(=O)(=O)O)C1(C)C)c1csc(N)n1.O=C(O)C(F)(F)F: 25

Record summary for `CC1(C)[C@H](NC(=O)/C(=N\O[C@@H](COc2ccc(-c3cn(CCCN)[n+](CCCN)c3)cc2)C(=O)O)c2csc(N)n2)C(=O)N1OS(=O)(=O)[O-]` : reported PA_CL5701 MITC95 = 1.563
